target: KRAS (G12D) (Homo sapiens, UniProt P01116, G12D); construct: in-cell western with KRAS G12D antibody after 24 h; test: KRAS (G12D) cellular degradation assay in AsPC-1 cells; assay type: cell-based; conditions: 24 hours, antibody fluorescence (Odyssey CLX), DC50 half-maximal degradation concentration
Sequence (P01116 1-188 isoform P01116-2 G12D): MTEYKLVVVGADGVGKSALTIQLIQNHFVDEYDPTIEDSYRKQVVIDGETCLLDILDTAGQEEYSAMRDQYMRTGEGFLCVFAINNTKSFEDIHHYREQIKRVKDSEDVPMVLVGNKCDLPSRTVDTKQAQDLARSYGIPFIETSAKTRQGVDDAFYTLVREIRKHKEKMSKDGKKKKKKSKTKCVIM
readoutType: DC50

compound	DC50
CCn1nccc1-c1ccc([C@H](CO)NC(=O)[C@@H]2C[C@@H](O)CN2C(=O)[C@H](C(C)C)n2cc(-c3ccc(COc4c(-c5c(C)c(F)cc6[nH]ncc56)c(C5CC5)cc5c(N6CCNCCC6C)nc(OC[C@H](C)OC)nc45)cc3)nn2)cc1 (stereo in doubt)	10 to 100 nM

# input for lookup
Input: What reported DC50 corresponds to CCn1nccc1-c1ccc([C@H](CO)NC(=O)[C@@H]2C[C@@H](O)CN2C(=O)[C@H](C(C)C)n2cc(-c3ccc(COc4c(-c5c(C)c(F)cc6[nH]ncc56)c(C5CC5)cc5c(N6C[C@@H]7C[C@H]6CN7)nc(OCC6COC7OCCC67)nc45)cc3)nn2)cc1 (some centres unmarked) on KRAS (G12D) (Homo sapiens, UniProt P01116, G12D)?
Output: < 10 nM

====

DC50 for assorted compounds
biological target: KRAS (G12D) (Homo sapiens, UniProt P01116, G12D); construct: in-cell western with KRAS G12D antibody after 24 h; assay: KRAS (G12D) cellular degradation assay in AsPC-1 cells; type: cell-based; details: 24 hours, antibody fluorescence (Odyssey CLX), DC50 half-maximal degradation concentration

Input: Param item = CO[C@@H](C)COc1nc(N2C[C@@H]3C[C@H]2CN3)c2cc(C3CC3)c(-c3c(C)c(F)cc4[nH]ncc34)c(OCc3ccc(-c4cn([C@H](C(=O)N5C[C@H](O)C[C@H]5C(=O)N[C@H](C#Cc5cncc6ncsc56)CO)C(C)C)nn4)cc3)c2n1 [Example 118] ; retrieve measured DC50.
Output: 10 to 100 nM

Input: Consider next the compound Cc1ncsc1-c1ccc([C@H](CO)NC(=O)[C@@H]2C[C@@H](O)CN2C(=O)[C@H](C(C)C)n2cc(-c3ccc(COc4c(-c5c(C)c(F)cc6[nH]ncc56)c(C5CC5)cc5c(N6C[C@@H]7C[C@H]6CN7)nc(OCC6(C(F)F)CC6)nc45)cc3)nn2)cc1 [Example 79] in the same way.
Output: < 10 nM

Input: Repeat for the following compound: CCn1nccc1-c1ccc([C@H](CO)NC(=O)[C@@H]2C[C@@H](O)CN2C(=O)[C@H](C(C)C)n2cc(-c3ccc(COc4c(-c5c(C)c(F)cc6[nH]ncc56)c(C5CC5)cc5c(N6CC7COCC(C6)N7)nc(OC[C@H](C)OC)nc45)cc3)nn2)cc1 [Example 37]
Output: 10 to 100 nM

Input: Subsequent entry: CCn1nccc1-c1ccc([C@@H](NC(=O)[C@@H]2C[C@@H](O)CN2C(=O)[C@H](C(C)C)n2cc(-c3ccc(COc4c(-c5c(C)c(F)cc6[nH]ncc56)c(C5CC5)cc5c(N6C[C@@H]7C[C@H]6CN7)nc(O[C@H]6CC[C@H](OC)CC6)nc45)cc3)nn2)[C@H](C)O)cc1 [Example 121]
Output: < 10 nM

====

biological target: KRAS (G12D) (Homo sapiens, UniProt P01116, G12D); construct: in-cell western with KRAS G12D antibody after 24 h; assay: KRAS (G12D) cellular degradation assay in AsPC-1 cells; assay type: cell-based; conditions: 24 hours, antibody fluorescence (Odyssey CLX), DC50 half-maximal degradation concentration
Quick reference for DC50 among some compounds

# count of solved cases: 3
compound	readoutType	result
CCn1cc2cccc(C#C[C@H](CO)NC(=O)[C@@H]3C[C@@H](O)CN3C(=O)[C@H](C(C)C)n3cc(-c4ccc(COc5c(-c6c(C)c(F)cc7[nH]ncc67)c(C6CC6)cc6c(N7C[C@@H]8C[C@H]7CN8)nc(O[C@H]7C[C@H](OC)C7)nc56)cc4)nn3)c2n1 [Example 168]	DC50	10 to 100 nM
CO[C@@H](C)COc1nc(N2C[C@@H]3C[C@H]2CN3)c2cc(C3CC3)c(-c3c(C)c(F)c(Cl)c4[nH]ncc34)c(OCc3ccc(-c4cn([C@H](C(=O)N5C[C@H](O)C[C@H]5C(=O)N[C@@H](CO)c5ccc(-c6scnc6C)cc5)C(C)C)nn4)cc3)c2n1 [Example 97]	DC50	< 10 nM
CCn1nccc1C12CC(CNC(=O)[C@@H]3C[C@@H](O)CN3C(=O)[C@H](C(C)C)n3cc(-c4ccc(COc5c(-c6c(C)c(F)cc7[nH]ncc67)c(C6CC6)cc6c(N7C[C@@H]8C[C@H]7CN8)nc(OC[C@H](C)OC)nc56)cc4)nn3)(C1)C2 [Example 81]	DC50	10 to 100 nM

We now examine a further compound.
Input: What measured DC50 goes with COC1CCC(Oc2nc(N3C[C@@H]4C[C@H]3CN4)c3cc(C4CC4)c(-c4c(C)c(F)c(F)c5[nH]ncc45)c(OCc4ccc(-c5cn([C@H](C(=O)N6C[C@H](O)C[C@H]6C(=O)N[C@@H](CO)c6ccc(-c7scnc7C)cc6)C(C)C)nn5)cc4)c3n2)CC1 (stereo partly shown) [Example 103] ?
Output: 10 to 100 nM
